We begin with a simple list: items and their reported TGI.
system: 786-0 renal; experiment: NCI tumour cell line growth inhibition, 48 h

Below are worked cases with known answers.
[
  {
    "compound": "Nc1ccn(C2O[C@H](CO)[C@@H](O)[C@@H]2O)c(=O)n1 (stereo not given in full)",
    "TGI": "> 100 µM"
  },
  {
    "compound": "CCCCCCCCCCCC(=O)CC(=O)c1c(O)cccc1O",
    "TGI": "39.4 µM"
  },
  {
    "compound": "CCc1c(Oc2ccc(C(C)=O)cc2)c2ccccc2[nH]c1=O",
    "TGI": "> 72.1 µM"
  },
  {
    "compound": "Cc1cc(N(CCC#N)CCC#N)ccc1/C=N/NC(=O)c1cc(Cl)ccc1O",
    "TGI": "> 100 µM"
  },
  {
    "compound": "CC1=C(C(=O)Nc2ccc3[nH]ncc3c2)C(c2ccc3ccccc3c2)CC(=O)N1 (stereo not given)",
    "TGI": "> 25 µM"
  },
  {
    "compound": "O=[N+]([O-])/C=C\\c1ccc(Cl)c(Cl)c1",
    "TGI": "3.56 µM"
  }
]

Query: # lookup: 786-0 renal TGI, key = CN(C(=O)C12C3C4C1C1C2C3C41C(=O)C(C)(C)C)C(C)(C)C (stereo not given)
Response: > 100 µM

Query: # lookup: 786-0 renal TGI, key = N#C/C(=C1C=C/C(=N/O)C(Br)=C/1)c1ccccc1
Response: 14.7 µM

Query: # lookup: 786-0 renal TGI, key = CN1C(=O)N(c2ccccc2)C2(CCN(CC3COc4ccccc4O3)CC2)C1=O (stereo not given)
Response: > 100 µM

Query: # lookup: 786-0 renal TGI, key = COc1ccc2ccc3c(c2c1)CN1CCc2cc(OC)c(OC)cc2C1C3 (stereo not given)
Response: > 100 µM
